// data source = the NIST ThermoML archive (doi:10.1016/j.jct.2016.01.017)

test: activity coefficient (dimensionless); of the first substance listed, at infinite dilution; xn = mol fraction of the nth substance listed; settings: 348.15 K; 100 kPa; Liquid; Chromatography; x1 = 0
Decide by activity coefficient: equal to or exceeding 10 means y, less means n.

Some solved cases for reference:
{"columns": ["compound", "answer.label"],
 "data": [
  ["C=CCCCCC [1-heptene] + CCCC[n+]1ccc(C#N)cc1.O=S(=O)([N-]S(=O)(=O)C(F)(F)F)C(F)(F)F", "y"],
  ["C1CCCCC1 [cyclohexane] + CCCC[n+]1ccc(C#N)cc1.O=S(=O)([N-]S(=O)(=O)C(F)(F)F)C(F)(F)F", "y"],
  ["CCCCC [pentane] + CCCC[n+]1ccc(C#N)cc1.O=S(=O)([N-]S(=O)(=O)C(F)(F)F)C(F)(F)F", "y"],
  ["C=C(C)c1ccccc1 [(1-methylethenyl)benzene] + CCCC[n+]1ccc(C#N)cc1.O=S(=O)([N-]S(=O)(=O)C(F)(F)F)C(F)(F)F", "n"],
  ["CCCC=O [butanal] + CCCC[n+]1ccc(C#N)cc1.O=S(=O)([N-]S(=O)(=O)C(F)(F)F)C(F)(F)F", "n"],
  ["c1ccccc1 [benzene] + CCCC[n+]1ccc(C#N)cc1.O=S(=O)([N-]S(=O)(=O)C(F)(F)F)C(F)(F)F", "n"]
]}

q: Dear colleague, could you confirm whether CC(C)OC(C)C [diisopropyl ether] + CCCC[n+]1ccc(C#N)cc1.O=S(=O)([N-]S(=O)(=O)C(F)(F)F)C(F)(F)F has activity coefficient at or above 10?
a: n

###

test: activity coefficient (dimensionless); of the first substance listed, at infinite dilution; xn = mol fraction of the nth substance listed; conditions: 338.15 K; 100 kPa; Liquid; Chromatography; x1 = 0
activity coefficient values, listed per item
Form: value (number only, do not type unit).

Example cases with answers are listed next.
{"columns": ["compound", "activity coefficient"],
 "data": [
  ["CC(C)O [propan-2-ol] + CCCC[n+]1ccc(C#N)cc1.O=S(=O)([N-]S(=O)(=O)C(F)(F)F)C(F)(F)F", 1.83],
  ["CCCCCCCCCC [decane] + CCCC[n+]1ccc(C#N)cc1.O=S(=O)([N-]S(=O)(=O)C(F)(F)F)C(F)(F)F", 99.8],
  ["CCO [ethanol] + CCCC[n+]1ccc(C#N)cc1.O=S(=O)([N-]S(=O)(=O)C(F)(F)F)C(F)(F)F", 1.55]
]}

q: Give reported activity coefficient value for Cc1ccccc1C [1,2-dimethylbenzene] + CCCC[n+]1ccc(C#N)cc1.O=S(=O)([N-]S(=O)(=O)C(F)(F)F)C(F)(F)F
a: 2.1

q: Retrieve activity coefficient measured for c1ccncc1 [pyridine] + CCCC[n+]1ccc(C#N)cc1.O=S(=O)([N-]S(=O)(=O)C(F)(F)F)C(F)(F)F and print it.
a: 0.56

q: Identify measured activity coefficient associated with CCC(=O)OC [methyl propanoate] + CCCC[n+]1ccc(C#N)cc1.O=S(=O)([N-]S(=O)(=O)C(F)(F)F)C(F)(F)F
a: 0.956

q: Name the recorded activity coefficient of the compound listed here: CCc1ccccc1 [ethylbenzene] + CCCC[n+]1ccc(C#N)cc1.O=S(=O)([N-]S(=O)(=O)C(F)(F)F)C(F)(F)F
a: 2.77

q: Identify measured activity coefficient associated with CC1CCCCC1 [methylcyclohexane] + CCCC[n+]1ccc(C#N)cc1.O=S(=O)([N-]S(=O)(=O)C(F)(F)F)C(F)(F)F
a: 19.1

q: Return reported activity coefficient. Input compound: CCCCO [butan-1-ol] + CCCC[n+]1ccc(C#N)cc1.O=S(=O)([N-]S(=O)(=O)C(F)(F)F)C(F)(F)F
a: 2.56

###

experiment: activity coefficient (dimensionless); of the first substance listed, at infinite dilution; xn = mol fraction of the nth substance listed; conditions: 368.15 K; 100 kPa; Liquid; Chromatography; x1 = 0
property: activity coefficient
Reply briefly: the number, and no unit.

# count of solved cases: 6
{"columns": ["compound", "activity coefficient"],
 "data": [
  ["CCC(=O)CC [pentan-3-one] + CCCC[n+]1ccc(C#N)cc1.O=S(=O)([N-]S(=O)(=O)C(F)(F)F)C(F)(F)F", 0.984],
  ["C=CCCCCC [1-heptene] + CCCC[n+]1ccc(C#N)cc1.O=S(=O)([N-]S(=O)(=O)C(F)(F)F)C(F)(F)F", 18.1],
  ["C1CCCCCC1 [cycloheptane] + CCCC[n+]1ccc(C#N)cc1.O=S(=O)([N-]S(=O)(=O)C(F)(F)F)C(F)(F)F", 14.8],
  ["COC(C)(C)C [2-methoxy-2-methylpropane] + CCCC[n+]1ccc(C#N)cc1.O=S(=O)([N-]S(=O)(=O)C(F)(F)F)C(F)(F)F", 3.66],
  ["CCCCCCCCCC [decane] + CCCC[n+]1ccc(C#N)cc1.O=S(=O)([N-]S(=O)(=O)C(F)(F)F)C(F)(F)F", 83.6],
  ["CCCC=O [butanal] + CCCC[n+]1ccc(C#N)cc1.O=S(=O)([N-]S(=O)(=O)C(F)(F)F)C(F)(F)F", 0.917]
]}

Next:
q: Item CCC(C)(C)OC [2-methoxy-2-methylbutane] + CCCC[n+]1ccc(C#N)cc1.O=S(=O)([N-]S(=O)(=O)C(F)(F)F)C(F)(F)F : provide activity coefficient
a: 5.13

###

assay: activity coefficient (dimensionless); of the first substance listed, at infinite dilution; xn = mol fraction of the nth substance listed; settings: 338.15 K; 100 kPa; Liquid; Chromatography; x1 = 0
Recorded activity coefficient for the following compounds
I'd appreciate a reply containing only the number, no unit.

{"columns": ["compound", "activity coefficient"],
 "data": [
  ["CCC(C)(C)C [2,2-dimethylbutane] + CCCC[n+]1ccc(C#N)cc1.O=S(=O)([N-]S(=O)(=O)C(F)(F)F)C(F)(F)F", 25.6],
  ["C=CCCCCCC [oct-1-ene] + CCCC[n+]1ccc(C#N)cc1.O=S(=O)([N-]S(=O)(=O)C(F)(F)F)C(F)(F)F", 27.3],
  ["CCC(C)O (centres undefined) [butan-2-ol] + CCCC[n+]1ccc(C#N)cc1.O=S(=O)([N-]S(=O)(=O)C(F)(F)F)C(F)(F)F", 2.18],
  ["C=CCCCCCCCC [1-decene] + CCCC[n+]1ccc(C#N)cc1.O=S(=O)([N-]S(=O)(=O)C(F)(F)F)C(F)(F)F", 53.5],
  ["COC(C)=O [methyl ethanoate] + CCCC[n+]1ccc(C#N)cc1.O=S(=O)([N-]S(=O)(=O)C(F)(F)F)C(F)(F)F", 0.724],
  ["CCC(C)(C)OC [2-methoxy-2-methylbutane] + CCCC[n+]1ccc(C#N)cc1.O=S(=O)([N-]S(=O)(=O)C(F)(F)F)C(F)(F)F", 4.76]
]}

q: For the compound CCCOCCC [dipropyl ether] + CCCC[n+]1ccc(C#N)cc1.O=S(=O)([N-]S(=O)(=O)C(F)(F)F)C(F)(F)F , report activity coefficient.
a: 8.78

q: Give the value of activity coefficient reported for the following: C=C(C)c1ccccc1 [(1-methylethenyl)benzene] + CCCC[n+]1ccc(C#N)cc1.O=S(=O)([N-]S(=O)(=O)C(F)(F)F)C(F)(F)F
a: 2.4

q: For the compound C1CCCCC1 [cyclohexane] + CCCC[n+]1ccc(C#N)cc1.O=S(=O)([N-]S(=O)(=O)C(F)(F)F)C(F)(F)F , give its measured activity coefficient value.
a: 14.2

###

test: activity coefficient (dimensionless); of the first substance listed, at infinite dilution; xn = mol fraction of the nth substance listed; conditions: 328.15 K; 100 kPa; Liquid; Chromatography; x1 = 0
Below: a set of entries, each annotated with reported activity coefficient.
Lab note: record just the number, no unit beside it.

Sample records with activity coefficient:
{"columns": ["compound", "reported.value"],
 "data": [
  ["CCCO [propan-1-ol] + CCCC[n+]1ccc(C#N)cc1.O=S(=O)([N-]S(=O)(=O)C(F)(F)F)C(F)(F)F", 2.1],
  ["C=C(C)c1ccccc1 [(1-methylethenyl)benzene] + CCCC[n+]1ccc(C#N)cc1.O=S(=O)([N-]S(=O)(=O)C(F)(F)F)C(F)(F)F", 2.24],
  ["CCCCCO [pentan-1-ol] + CCCC[n+]1ccc(C#N)cc1.O=S(=O)([N-]S(=O)(=O)C(F)(F)F)C(F)(F)F", 3.36]
]}

q: Identify measured activity coefficient associated with C1CCCCCCC1 [cyclooctane] + CCCC[n+]1ccc(C#N)cc1.O=S(=O)([N-]S(=O)(=O)C(F)(F)F)C(F)(F)F
a: 24.1

q: Specify activity coefficient for CC(C)CO [2-methyl-1-propanol] + CCCC[n+]1ccc(C#N)cc1.O=S(=O)([N-]S(=O)(=O)C(F)(F)F)C(F)(F)F and stop.
a: 2.7

q: Give the value of activity coefficient reported for the following: CC(C)O [propan-2-ol] + CCCC[n+]1ccc(C#N)cc1.O=S(=O)([N-]S(=O)(=O)C(F)(F)F)C(F)(F)F
a: 1.95

q: State, in one line, measured activity coefficient of CCCc1ccccc1 [propylbenzene] + CCCC[n+]1ccc(C#N)cc1.O=S(=O)([N-]S(=O)(=O)C(F)(F)F)C(F)(F)F
a: 4.07
